# experiment.description: Thiol reactivity of the compound assessed as TNB2-depletion at 200 uM measured upto 24 hrs by TNB2-depletion assay
# Type: physicochemical

| structure.smiles | Drug metabolism |
| --- | --- |
| S=c1[nH]c2cccc(Cl)c2o1 | Metabolite_Detected |
| Sc1nc2ccccc2s1 | Metabolite_Detected |
| Cc1ccc2[nH]c(=S)oc2c1 | Metabolite_Detected |
| Oc1cccc2oc(S)nc12 | Metabolite_Detected |
| Sc1nc2ccccc2[nH]1 | Metabolite_Notdetected |
| Cn1c(S)nc2ccccc21 | Metabolite_Notdetected |
| Sc1nc2cc(Cl)ccc2[nH]1 | Metabolite_Notdetected |
| Cn1c(S)nc2ccc(Cl)cc21 | Metabolite_Detected |
| S=c1[nH]c2cccc(Br)c2s1 | Metabolite_Detected |
| Cn1c(=S)[nH]c2cccc(Cl)c21 | Metabolite_Detected |
| S=c1[nH]c2cccc(Cl)c2s1 | Metabolite_Detected |
| Sc1nc2ccccc2o1 | Metabolite_Detected |
| CCOc1ccc2[nH]c(S)nc2c1 | Metabolite_Notdetected |
| Cn1c(S)nc2cc(Cl)ccc21 | Metabolite_Notdetected |
